The reported numbers originate from PubChem BioAssay AID248.

T/C values for the compounds below.
# Tested on: L1210 leukemia ip in BDF1 mice, survival T/C
# test.protocol: NCI In Vivo Anticancer Drug Screen. Data for tumor model L1210 Leukemia (intraperitoneal) in B6D2F1 (BDF1) mice
# recorded.conditions: endpoint: mean survival time; dose: 100.0 mg/kg/injection; schedule: Q04DX002 (ip); vehicle: saline with Tween-80; higher = longer survival
# Procedure: The antitumor activity of compounds was measured in mice bearing transplantable tumors. Survival or tumor size were measured and the results are expressed as the measurement made in the treated group (T) divided by the measurement made in the vehicle treated control group (C). The tumor model used in this assay is L1210 Leukemia (intraperitoneal) in B6D2F1 (BDF1) mice
Inconclusive results and toxic doses are left out. Square brackets hold non-standard residues; d marks the D form. Peptide text beside a SMILES is read from it. ξ: configuration not given here. ξI = CCC(C)C(N)C(=O)O

The examples below pair each entry with its known result.
Quick one: give measured T/C for COc1ccc(Cl)cc1NC(=O)Nc1cc(C)ccc1N=Nc1ccc(C)cc1 87 % of control

Given the compound CC1CC(NC(=S)NC(=O)c2ccccc2Cl)CC(C)(C)C1 (stereo not drawn) , write its reported T/C. 98 % of control

Recall and state the measured T/C for CCC(C)C(NC(=O)CN)C(=O)O (stereo not drawn) (H-Gly-[ξI]-OH) . 97 % of control

Next:
Quick one: give measured T/C for Cc1cc(C)c(NC2=NCCS2)cc1C 100 % of control

Please look at this compound and report its T/C: COCCN(CCOC)C(=O)Nc1cccc(Cl)c1 90 % of control

Tell us which T/C value is on record for S=c1nccc[nH]1 96 % of control

Read the entry CCOc1cc(-c2ccc(OC)cc2)nc(N)n1 and write its reported T/C. 91 % of control

# return recorded T/C for entry CCCCCCCCCCCCCCCC[As]1c2ccccc2Nc2ccccc21 86 % of control

For CN(C)C(=O)Sc1ccc2ccc3ccccc3c2c1 , write its T/C. 104 % of control

Please report T/C for the following compound: Cc1cccnc1N 104 % of control

====

# System: L1210 leukemia ip in BDF1 mice, survival T/C
# test.protocol: NCI In Vivo Anticancer Drug Screen. Data for tumor model L1210 Leukemia (intraperitoneal) in B6D2F1 (BDF1) mice
# recorded.conditions: endpoint: mean survival time; dose: 400.0 mg/kg/injection; schedule: Q01DX009 (ip); vehicle: saline; higher = longer survival
Toxic doses and inconclusive results are not listed.
measure: T/C

Known T/C results, listed for orientation:
In one line, give reported T/C of the entry O=S(=O)(O)CBr . 98 % of control

Look up and state reported T/C for CCOc1ccccc1C(N)=O 102 % of control

Respond only with T/C recorded for CC[N+](CC)(CC)CCNC(C)=O 105 % of control

Item CCN(CC)C(=O)C1CN2CCc3cc(OC)c(OC)cc3C2CC1O (stereo not given) : provide T/C 115 % of control

Alright, here's another molecule for you.
Identify measured T/C corresponding to C=CCSc1nc(N)nc2c1ncn2C1CC(O)C(CO)O1 (stereo not given) 109 % of control

====

# System: L1210 leukemia ip in BDF1 mice, survival T/C
# test.protocol: NCI In Vivo Anticancer Drug Screen. Data for tumor model L1210 Leukemia (intraperitoneal) in B6D2F1 (BDF1) mice
# recorded.conditions: endpoint: mean survival time; dose: 100.0 mg/kg/injection; schedule: Q01DX009 (ip); vehicle: saline; higher = longer survival
Inconclusive results and toxic doses are left out.
Overview of reported T/C across a group of compounds:

Would you please look over these solved cases?
Provide measured T/C value, entry: CCn1c(O)c(C=N)c(=O)[nH]c1=O 96 % of control

Please look at this compound and report its T/C: O=S(=O)(CC(Br)c1ccccc1)c1ccccc1 (stereo not given) 92 % of control

Answer with the recorded T/C of CNC(=O)NCCOC(=O)NC only. 94 % of control

More entries:
Quickly give me recorded T/C for NCCOP(=O)(O)O 98 % of control

Give reported T/C value for COC(=O)C(N)CSC (stereo not given) 101 % of control

====

# Test system: L1210 leukemia ip in BDF1 mice, survival T/C
# test.protocol: NCI In Vivo Anticancer Drug Screen. Data for tumor model L1210 Leukemia (intraperitoneal) in B6D2F1 (BDF1) mice
# recorded.conditions: endpoint: mean survival time; dose: 200.0 mg/kg/injection; schedule: Q01DX001 (ip); vehicle: saline; higher = longer survival
# Experimental: The antitumor activity of compounds was measured in mice bearing transplantable tumors. Survival or tumor size were measured and the results are expressed as the measurement made in the treated group (T) divided by the measurement made in the vehicle treated control group (C). The tumor model used in this assay is L1210 Leukemia (intraperitoneal) in B6D2F1 (BDF1) mice
Toxic doses and inconclusive results are not listed.
Catalogue of compounds with associated T/C

Here's what some known entries look like.
Give T/C for O=C(O)CCCN1C/C(=C\c2ccc(Cl)cc2)C(=O)C1=O 102 % of control

Provide T/C value for the following compound: COc1ccc(C(=S)N2CCN(c3ccccc3Cl)CC2)cc1 91 % of control

State, in one line, measured T/C of O=C(O)CCC1COc2ccccc2O1 (stereo not given) 114 % of control

Identify the reported T/C for the following entry. CCCCc1[nH]ccc2c(C)c3nc4ccccc4c3cc12 96 % of control

Next, consider the following compound.
Quick one: give measured T/C for [O-][N+](=C\c1ccccc1)/[N+]([O-])=C\c1ccccc1 95 % of control

====

Recorded T/C by entry
# System: L1210 leukemia ip in BDF1 mice, survival T/C
# test.protocol: NCI In Vivo Anticancer Drug Screen. Data for tumor model L1210 Leukemia (intraperitoneal) in B6D2F1 (BDF1) mice
# recorded.conditions: endpoint: mean survival time; dose: 50.0 mg/kg/injection; schedule: Q04DX003 (ip); vehicle: saline; higher = longer survival
Inconclusive results and toxic doses are left out.

Below, each entry is followed by its recorded T/C result.
Tell me measured T/C for CC(C)(C)C1CC(C(F)(F)F)(C(F)(F)F)OS(=O)O1 (stereo not given) please. 94 % of control

Give the reported T/C for this molecule. N#CN1CC(C(=O)N2CCCCC2)C=C2c3cccc4[nH]cc(c34)CC21 (stereo not given) 90 % of control

Respond only with T/C recorded for C[N+]1(C)CCCCC1 101 % of control

Report T/C, nothing else, for this molecule: NC(CS)=NC1CCCC1 112 % of control

New cases:
Assign T/C to the following record: CSc1ccc2c(c1)N(CCC1CCCCN1C)c1ccccc1S2 (stereo not given) 92 % of control

Provide T/C value for the following molecule: Oc1c(CN2CCCC2)cc(Nc2nccc(/C=C/c3ccc(Cl)cc3)n2)cc1CN1CCCC1 96 % of control

====

# System: L1210 leukemia ip in BDF1 mice, survival T/C
# test.protocol: NCI In Vivo Anticancer Drug Screen. Data for tumor model L1210 Leukemia (intraperitoneal) in B6D2F1 (BDF1) mice
# recorded.conditions: endpoint: mean survival time; dose: 200.0 mg/kg/injection; schedule: Q04DX002 (ip); vehicle: Klucel (hydroxypropylcellulose) (HPC); higher = longer survival
Toxic doses and inconclusive results are not listed.
Form field: T/C (one value per entry).

Solved entries:
Fill in T/C for record CC(C)CCOC(=O)C(O)C(C)(Cl)c1ccccc1 (configuration not stated) 91 % of control

Supply measured T/C of COC1CCC(CCNC(N)=O)CC1OC (configuration not stated) in your reply. 117 % of control

Recall and state the measured T/C for CCOC(=O)CNc1ccc(C)c(C)c1 . 109 % of control

Give me measured T/C, please, for this compound: O=C(/C=C\c1cccc([N+](=O)[O-])c1)c1ccc(F)cc1 94 % of control

Check the records and state T/C for O=C(CC1C(=O)Nc2ccccc21)CC1C(=O)Nc2ccccc21 (configuration not stated) 97 % of control

***
// fetch T/C given entry O=C1c2ccccc2C(=O)N1c1ccccc1 94 % of control

Please report the measured T/C for COc1ccc(/C=N/NC(=O)c2ccccc2N)cc1 106 % of control

Report T/C for CC(=O)O[C@H]1CC[C@@]2(C)[C@@H](CC[C@@H]3[C@@H]2CC[C@]2(C)[C@@H](C(C)=O)CC[C@@H]32)C1 96 % of control

Look up and state reported T/C for O=S(=O)(c1ccccc1)N1CN2CN(C1)CN(S(=O)(=O)c1ccccc1)C2 106 % of control

Identify measured T/C associated with CCCCNC(=O)Nc1cc(C)ccc1Cl 97 % of control

Kindly indicate its recorded T/C. Item: O=P(NCCCl)(NCCCl)c1ccccc1 100 % of control

Let me know recorded T/C for Cc1ccc(S(=O)(=O)OC(C(F)(F)F)C(F)(F)F)cc1 , thanks. 90 % of control

====

# Tested on: L1210 leukemia ip in BDF1 mice, survival T/C
# test.protocol: NCI In Vivo Anticancer Drug Screen. Data for tumor model L1210 Leukemia (intraperitoneal) in B6D2F1 (BDF1) mice
# recorded.conditions: endpoint: mean survival time; dose: 75.0 mg/kg/injection; schedule: Q01DX001 (ip); vehicle: saline; higher = longer survival
Inconclusive results and toxic doses are left out.
measure: T/C

Fill in reported T/C for this entry: C[n+]1cc(C#N)cc(C#N)c1 90 % of control

Others:
Dear colleague, please send me the reported T/C for CC1(C)OC2C3CC(C2O1)n1cnc2c(N)nc[n+](c21)C3 (stereo not drawn) when you can. 120 % of control

Item CN1C2CCC1CC(=O)C2 : provide T/C 103 % of control
